Molecular target: Quinolone resistance protein NorA (Staphylococcus aureus)
Assay: Inhibition of NorA efflux pump in Staphylococcus aureus 1199B assessed as reduction of ciprofloxacin MIC after 24 hrs by broth checkerboard method; further: test concentration or dose not given here
For each record, write down the corresponding fold change (FC).
One number for each entry.

Solved cases (4 shown):
# compound, recorded result
records = [
    ("O=C(/C=C/C=C/c1ccc2c(c1)OCO2)N1CCOCC1", 0),
    ("O=C(/C=C/C=C/c1ccc2c(c1)OCO2)NCC(O)c1ccccc1 (configuration not stated)", 4),
    ("O=C(/C=C/C=C/c1ccc2c(c1)OCO2)Nc1ccccc1CO", 2),
    ("CC(=O)Nc1ccc(NC(=O)/C=C/C=C/c2ccc3c(c2)OCO3)cc1", 4),
]

Batch: fold change (FC) for all items listed.
1. O=C(/C=C/C=C/c1ccc2c(c1)OCO2)Nc1ccc2ncsc2c1
2. CC(O)CCNC(=O)/C=C/C=C/c1ccc2c(c1)OCO2 (configuration not stated)
3. CCN(CC)C(=O)/C=C/C=C/c1ccc2c(c1)OCO2
4. CCC(CO)NC(=O)/C=C/C=C/c1ccc2c(c1)OCO2 (configuration not stated)
5. CC(C)CCNC(=O)/C=C/C=C/c1ccc2c(c1)OCO2
6. CCCNC(=O)/C=C/C=C/c1ccc2c(c1)OCO2
7. CC(C)CNC(=O)/C=C/C=C/c1ccc2c(c1)OCO2
8. O=C(/C=C/C=C/c1ccc2c(c1)OCO2)Nc1ccc(CO)cc1

Response:
1: 2; 2: 2; 3: 2; 4: 0; 5: 2; 6: 0; 7: 2; 8: 2
